From: paper PMC10835127

# Test system: influenza A H1N1 virus
# experimental.setup: 22,2 µM peptide, 48 hr post-treatment, A549
Each entry below carries its reported Neuraminidase activity normalized to vehicle.

Example entries begin here.
{"substance": "CPEP86: peptide of the viral peptide library; sequence page not shown (SGFGPLITHG)", "endpoint.result": "1,0588"}
{"substance": "MNNQRKKAKNTPFNM [CPEP62]", "endpoint.result": "0,891"}
{"substance": "SEKHFRETEV [CPEP106]", "endpoint.result": "1,0803"}
{"substance": "LTEDRWNKPQKTKGH [CPEP141]", "endpoint.result": "0,9378"}
{"substance": "EVLADNLPPP [CPEP90]", "endpoint.result": "0,7822"}

Given the substance CPEP135: peptide of the viral peptide library; sequence page not shown (KGHRGSHTMNGH) and test system influenza A H1N1 virus, the measured Neuraminidase activity normalized to vehicle is 0,9598

Given the substance LGNIKGILGKKDKDG [CPEP51] and test system influenza A H1N1 virus, the measured Neuraminidase activity normalized to vehicle is 0,9184
